Cited source: patent US20210045385A1

Tested on: Italian ryegrass (Lolium multiflorum)
Assay: Test A postemergence, visual plant response rating
Assay type: in vivo
Details: Postemergence, 125 g ai/ha; 0 to 100 scale (0 no effect, 100 complete control)
Some compounds, each annotated with its measured Ryegrass, Italian plant response rating.

COMPOUND: CON=C(c1cc(Cl)ccc1C)c1c(O)c(C)nn(C)c1=O [Compound 65]
Ryegrass, Italian plant response rating: 50
//
COMPOUND: CCn1nc(C)c(O)c(C(=NOC)c2cccc(Cl)c2)c1=O (mixture of isomers) [Compound 2]
Ryegrass, Italian plant response rating: 20
//
COMPOUND: CON=C(c1c(O)c(C)nn(C)c1=O)c1cccc2cc(Br)ccc12 [Compound 100]
Ryegrass, Italian plant response rating: 80
//
COMPOUND: CO/N=C(\c1c(C)cccc1F)c1c(O)c(C)nn(C)c1=O [Compound 39]
Ryegrass, Italian plant response rating: 0
//
COMPOUND: CO/N=C(\c1csc(C)c1)c1c(O)c(C)nn(C)c1=O [Compound 44]
Ryegrass, Italian plant response rating: 20

---

Test system: barnyardgrass (Echinochloa crus-galli)
Experiment: Test A preemergence, visual plant response rating
Assay type: in vivo
Details: 125 g ai/ha, preemergence; 0 to 100 scale, 0 no effect, 100 complete control
From the text: […]
So basically, if Barnyardgrass plant response rating comes in under 50 it's 1 (yes), and if it's 50 or more it's 0 (no).

MOLECULE: CON=C(c1c(O)c(C)nn(C)c1=O)c1cccc2ccc(Cl)cc12
CLASS_LABEL: 0 (no)

MOLECULE: CCO/N=C(\c1c(O)c(C)nn(C)c1=O)c1cccc2ccccc12
CLASS_LABEL: 0 (no)

MOLECULE: CO/N=C(/c1c(O)c(C)nn(C)c1=O)c1ccc(F)c2ccccc12
CLASS_LABEL: 1 (yes)

MOLECULE: CO/N=C(/c1c(OC(C)=O)c(Cl)nn(C)c1=O)c1cccc2ccccc12
CLASS_LABEL: 0 (no)

MOLECULE: CO/N=C(\c1ccc(C)o1)c1c(O)c(C)nn(C)c1=O
CLASS_LABEL: 1 (yes)

MOLECULE: CO/N=C(/c1ccccc1F)c1c(O)c(C)nn(C)c1=O [Compound 34]
CLASS_LABEL: 1 (yes)

MOLECULE: CCc1ccccc1C(=NOC)c1c(O)c(C)nn(C)c1=O
CLASS_LABEL: 1 (yes)

MOLECULE: CO/N=C(/c1ccccc1F)c1c(O)c(C)nn(C)c1=O [Compound 62]
CLASS_LABEL: 1 (yes)

MOLECULE: CON=C(c1cccc(C)c1F)c1c(O)c(C)nn(C)c1=O
CLASS_LABEL: 1 (yes)

MOLECULE: CO/N=C(\c1ccc(F)cc1C)c1c(O)c(C)nn(C)c1=O
CLASS_LABEL: 1 (yes)

MOLECULE: CCc1cccc(/C(=N\OC)c2c(O)c(C)nn(C)c2=O)c1
CLASS_LABEL: 1 (yes)

---

Test system: pigweed (Amaranthus retroflexus)
Assay: Test A postemergence, visual plant response rating
Format: in vivo
Settings: 500 g ai/ha, postemergence; 0 is no effect, 100 is complete control
MEASURE_NAME: Pigweed plant response rating (0 to 100 scale)

COMPOUND: CCO/N=C(\c1c(O)c(Cl)nn(C)c1=O)c1cccc2ccccc12 [Compound 146]
TARGET_OF_ASSAY: pigweed (Amaranthus retroflexus)
QUANTITATIVE_READOUT: 90

COMPOUND: CO/N=C(\c1cccc(C)c1)c1c(O)c(C2CC2)nn(C)c1=O [Compound 27]
TARGET_OF_ASSAY: pigweed (Amaranthus retroflexus)
QUANTITATIVE_READOUT: 30

COMPOUND: CON=C(c1c(O)c(C)nn(C)c1=O)c1cccc2cc(Br)ccc12 [Compound 100]
TARGET_OF_ASSAY: pigweed (Amaranthus retroflexus)
QUANTITATIVE_READOUT: 90

COMPOUND: CO/N=C(\c1cccc(C(F)(F)F)c1)c1c(O)c(C)nn(C)c1=O [Compound 71]
TARGET_OF_ASSAY: pigweed (Amaranthus retroflexus)
QUANTITATIVE_READOUT: 70
